- System: EGFR expressing cells (HeLa and A431)
- condition: summary in description
readout: Endosomal escape enhancing activity (enhancement of cytotoxicity of effector conjugate)

Could you share which Endosomal escape enhancing activity (enhancement of cytotoxicity of effector conjugate) value was measured for CC(=O)OC1C(C)OC(OC2C(C)OC(OC(=O)[C@]34CCC(C)(C)CC3C3=CCC5[C@@]6(C)CC[C@H](OC7OC(C(=O)NCCN8C(=O)C=CC8=O)C(O)C(OC8OCC(O)C(O)C8O)C7OC7OC(CO)C(O)C(O)C7O)[C@@](C)(C=O)C6CC[C@@]5(C)[C@]3(C)C[C@H]4O)C(OC3OC(C)C(OC4OCC(O)C(OC5OC(CO)C(O)C(O)C5O)C4O)C(O)C3O)C2O)C(O)C1OC1OCC(O)C(O)C1O (stereo partly drawn) ?
display activity

Another molecule: CC(=O)OC1C(C)OC(OC2C(C)OC(OC(=O)[C@]34CCC(C)(C)CC3C3=CCC5[C@@]6(C)CC[C@H](OC7OC(C(=O)NC(C)(CO)CO)C(O)C(OC8OCC(O)C(O)C8O)C7OC7OC(CO)C(O)C(O)C7O)[C@@](C)(C=O)C6CC[C@@]5(C)[C@]3(C)C[C@H]4O)C(OC3OC(C)C(OC4OCC(O)C(OC5OC(CO)C(O)C(O)C5O)C4O)C(O)C3O)C2O)C(O)C1OC1OCC(O)C(O)C1O (stereo partly drawn)
display activity

====

- Test system: human red blood cells
- assay.protocol: cells
- Assay type: cell-based
- condition: Table A5, read-out: IC50 nM (hemolysis)
In this section we review reported IC50 values for a set of molecules.

Item CC1OC(OC2C(C)OC(OC(=O)C34CCC(C)(C)CC3C3=CCC5C6(C)CCC(OC7OC(C(=O)NC(C)(CO)CO)C(O)C(OC8OCC(O)C(O)C8O)C7OC7OC(CO)C(O)C(O)C7O)C(C)(C=NNC(=O)CCCCCN7C(=O)C=CC7=O)C6CCC5(C)C3(C)CC4O)C(OC3OC(C)C(OC4OCC(O)C(OC5OC(CO)C(O)C(O)C5O)C4O)C(O)C3O)C2O)C(O)C(OC2OCC(O)C(O)C2O)C1O (stereo not drawn) with human red blood cells - IC50?
> 1e+06 nM

Another molecule: CC(=O)OC1C(C)OC(OC2C(C)OC(OC(=O)[C@]34CCC(C)(C)CC3C3=CCC5[C@@]6(C)CC[C@H](OC7OC(C(=O)NCCN8C(=O)C=CC8=O)C(O)C(OC8OCC(O)C(O)C8O)C7OC7OC(CO)C(O)C(O)C7O)[C@@](C)(CO)C6CC[C@@]5(C)[C@]3(C)C[C@H]4O)C(OC3OC(C)C(OC4OCC(O)C(OC5OC(CO)C(O)C(O)C5O)C4O)C(O)C3O)C2O)C(O)C1OC1OCC(O)C(O)C1O (stereo partly drawn)
> 1e+06 nM

Another molecule: CC(=O)OC1C(C)OC(OC2C(C)OC(OC(=O)[C@]34CCC(C)(C)CC3C3=CCC5[C@@]6(C)CC[C@H](OC7OC(C(=O)O)C(O)C(OC8OCC(O)C(O)C8O)C7OC7OC(CO)C(O)C(O)C7O)[C@@](C)(CO)C6CC[C@@]5(C)[C@]3(C)C[C@H]4O)C(OC3OC(C)C(OC4OCC(O)C(OC5OC(CO)C(O)C(O)C5O)C4O)C(O)C3O)C2O)C(O)C1OC1OCC(O)C(O)C1O (stereo partly drawn)
30000 nM

Another molecule: CC1OC(OC2C(C)OC(OC(=O)[C@]34CCC(C)(C)CC3C3=CCC5[C@@]6(C)CC[C@H](OC7OC(C(=O)NCCN8C(=O)C=CC8=O)C(O)C(OC8OCC(O)C(O)C8O)C7OC7OC(CO)C(O)C(O)C7O)[C@@](C)(CO)C6CC[C@@]5(C)[C@]3(C)C[C@H]4O)C(OC3OC(C)C(OC4OCC(O)C(OC5OC(CO)C(O)C(O)C5O)C4O)C(O)C3O)C2O)C(O)C(OC2OCC(O)C(O)C2O)C1O (stereo partly drawn)
> 1e+06 nM

Another molecule: CC(=O)OC1C(C)OC(OC2C(C)OC(OC(=O)C34CCC(C)(C)CC3C3=CCC5C6(C)CCC(OC7OC(C(=O)NC(C)(CO)CO)C(O)C(OC8OCC(O)C(O)C8O)C7OC7OC(CO)C(O)C(O)C7O)C(C)(C=NNC(=O)CCCCCN7C(=O)C=CC7=O)C6CCC5(C)C3(C)CC4O)C(OC3OC(C)C(OC4OCC(O)C(OC5OC(CO)C(O)C(O)C5O)C4O)C(O)C3O)C2O)C(O)C1OC1OCC(O)C(O)C1O (stereo not drawn)
> 1e+06 nM

From here, focus on the item given below.
Item CC1OC(OC2C(C)OC(OC(=O)[C@]34CCC(C)(C)CC3C3=CCC5[C@@]6(C)CC[C@H](OC7OC(C(=O)NCCN8C(=O)C=CC8=O)C(O)C(OC8OCC(O)C(O)C8O)C7OC7OC(CO)C(O)C(O)C7O)[C@@](C)(C=O)C6CC[C@@]5(C)[C@]3(C)C[C@H]4O)C(OC3OC(C)C(OC4OCC(O)C(OC5OC(CO)C(O)C(O)C5O)C4O)C(O)C3O)C2O)C(O)C(OC2OCC(O)C(O)C2O)C1O (stereo partly drawn) with human red blood cells - IC50?
100000 nM

====

- Tested on: EGFR expressing cells (HeLa and A431)
- condition: summary in description
readout: Endosomal escape enhancing activity (enhancement of cytotoxicity of effector conjugate)

Could you share which Endosomal escape enhancing activity (enhancement of cytotoxicity of effector conjugate) value was measured for CC1OC(OC2C(C)OC(OC(=O)[C@]34CCC(C)(C)CC3C3=CCC5[C@@]6(C)CC[C@H](OC7OC(C(=O)NC(C)(CO)CO)C(O)C(OC8OCC(O)C(O)C8O)C7OC7OC(CO)C(O)C(O)C7O)[C@@](C)(C=O)C6CC[C@@]5(C)[C@]3(C)C[C@H]4O)C(OC3OC(C)C(OC4OCC(O)C(OC5OC(CO)C(O)C(O)C5O)C4O)C(O)C3O)C2O)C(O)C(OC2OCC(O)C(O)C2O)C1O (stereo partly drawn) ?
display activity

Another compound: CC1OC(OC2C(C)OC(OC(=O)[C@]34CCC(C)(C)CC3C3=CCC5[C@@]6(C)CC[C@H](OC7OC(C(=O)O)C(O)C(OC8OCC(O)C(O)C8O)C7OC7OC(CO)C(O)C(O)C7O)[C@@](C)(C=O)C6CC[C@@]5(C)[C@]3(C)C[C@H]4O)C(OC3OC(C)C(OC4OCC(O)C(OC5OC(CO)C(O)C(O)C5O)C4O)C(O)C3O)C2O)C(O)C(OC2OCC(O)C(O)C2O)C1O (stereo partly drawn)
display activity

====

- System: human red blood cells
- assay.protocol: cells
- Format: cell-based
- condition: Table A5, read-out: IC50 nM (hemolysis)
- Description: Red blood cells (RBCs) were isolated from a buffy coat using a Ficoll gradient. The obtained RBC pellet (˜4-5 ml) was washed 2× with 50 ml DPBS (without Ca^2+/Mg^2+, PAN-Biotech GmbH). Cells were pelleted by centrifugation for 10 min, 800×g at RT. RBC were counted and resuspended at 500.000.000 c/ml in DPBS (without Ca^2+/Mg^2+), based on total cell count. Saponin dilutions were prepared in DPBS (with Ca^2+/Mg^2+, PAN-Biotech GmbH), at 1.11× final strength. […]
readout: IC50 (nM)
Dear colleague, please return just the value in nM, with no unit written.

Could you share which IC50 value was measured for CC1OC(OC2C(C)OC(OC(=O)[C@]34CCC(C)(C)CC3C3=CCC5[C@@]6(C)CC[C@H](OC7OC(C(=O)NC(C)(CO)CO)C(O)C(OC8OCC(O)C(O)C8O)C7OC7OC(CO)C(O)C(O)C7O)[C@@](C)(C=O)C6CC[C@@]5(C)[C@]3(C)C[C@H]4O)C(OC3OC(C)C(OC4OCC(O)C(OC5OC(CO)C(O)C(O)C5O)C4O)C(O)C3O)C2O)C(O)C(OC2OCC(O)C(O)C2O)C1O (stereo partly drawn) ?
140000

From here, focus on the item given below.
Could you share which IC50 value was measured for CC1OC(OC2C(C)OC(OC(=O)[C@]34CCC(C)(C)CC3C3=CCC5[C@@]6(C)CC[C@H](OC7OC(C(=O)O)C(O)C(OC8OCC(O)C(O)C8O)C7OC7OC(CO)C(O)C(O)C7O)[C@@](C)(CO)C6CC[C@@]5(C)[C@]3(C)C[C@H]4O)C(OC3OC(C)C(OC4OCC(O)C(OC5OC(CO)C(O)C(O)C5O)C4O)C(O)C3O)C2O)C(O)C(OC2OCC(O)C(O)C2O)C1O (stereo partly drawn) ?
200000

====

- assay.protocol: Critical micellar concentration (CMC) by ANS fluorescence
- Type: physicochemical
- condition: Table A7; determined in PBS
readout: CMC (µM)
Dear colleague, please return just the value in µM, with no unit written.

Could you share which CMC value was measured for CC1OC(OC2C(C)OC(OC(=O)[C@]34CCC(C)(C)CC3C3=CCC5[C@@]6(C)CC[C@H](OC7OC(C(=O)NC(C)(CO)CO)C(O)C(OC8OCC(O)C(O)C8O)C7OC7OC(CO)C(O)C(O)C7O)[C@@](C)(C=O)C6CC[C@@]5(C)[C@]3(C)C[C@H]4O)C(OC3OC(C)C(OC4OCC(O)C(OC5OC(CO)C(O)C(O)C5O)C4O)C(O)C3O)C2O)C(O)C(OC2OCC(O)C(O)C2O)C1O (stereo partly drawn) [SO1861-(Ac—OH)-(Glu-AMPD)] ?
90

From here, focus on the item given below.
Could you share which CMC value was measured for CC(=O)OC1C(C)OC(OC2C(C)OC(OC(=O)[C@]34CCC(C)(C)CC3C3=CCC5[C@@]6(C)CC[C@H](OC7OC(C(=O)O)C(O)C(OC8OCC(O)C(O)C8O)C7OC7OC(CO)C(O)C(O)C7O)[C@@](C)(CO)C6CC[C@@]5(C)[C@]3(C)C[C@H]4O)C(OC3OC(C)C(OC4OCC(O)C(OC5OC(CO)C(O)C(O)C5O)C4O)C(O)C3O)C2O)C(O)C1OC1OCC(O)C(O)C1O (stereo partly drawn) [SO1861-Ald-OH] ?
135

Where do the numbers come from? From patent US20230277612A1.
